molecular target: Bromodomain-containing protein 4 (Homo sapiens); experiment: Binding affinity to BRD4 (unknown origin) expressed in Escherichia coli BL21 (DE3) assessed as thermal stabilization at 10 uM by SYPRO orange dye based DSF assay
Doc: threshold 3 °C (exclusive). Items with ΔTm beneath it return MET; others return NOT MET.

Does the reported ΔTm of Cc1nc(C#N)c(NCc2csnn2)o1 stay below 3 °C?
NOT MET

More entries:
Does the reported ΔTm of Cc1cc(SCc2c(C)noc2C)ncn1 stay below 3 °C?
MET

Does the reported ΔTm of Cc1nonc1-c1cc2ccccc2[nH]1 stay below 3 °C?
MET

###

target: Bromodomain-containing protein 4 (Homo sapiens, UniProt O60885); experiment: Inhibition of BRD4 (unknown origin) expressed in Escherichia coli BL21 (DE3) using [Lys(Ac)5/8/12/16]-histone H4 (1 to 21residues)-GGK as substrate incubated for 30 mins by TR-FRET assay
measurement-type: IC50 (µM)
Express your answer in µM, writing the number without its unit.

Look over these answered cases.
# query: IC50 | item Oc1ccc(Cl)cc1Nc1ncnc2nc[nH]c12 | system: Bromodomain-containing protein 4 (Homo sapiens, UniProt O60885)
491

# query: IC50 | item Cc1noc(C)c1CSc1nnc(C)n1N | system: Bromodomain-containing protein 4 (Homo sapiens, UniProt O60885)
191

# query: IC50 | item Cc1cc(SCc2c(C)noc2C)ncn1 | system: Bromodomain-containing protein 4 (Homo sapiens, UniProt O60885)
30

More entries:
# query: IC50 | item Cc1noc(C)c1C(=O)Nc1nnc(C2CC2)s1 | system: Bromodomain-containing protein 4 (Homo sapiens, UniProt O60885)
86

###

Let's look at some molecules and their measured ΔTm.
target: Bromodomain-containing protein 4 (Homo sapiens, UniProt O60885); experiment: Binding affinity to BRD4 (unknown origin) expressed in Escherichia coli BL21 (DE3) assessed as thermal stabilization at 10 uM by SYPRO orange dye based DSF assay
Express your answer in °C, writing the number without its unit.

Look over these answered cases.
Please give the measured ΔTm for this molecule: Cc1nnc2n1C[C@@H](NC(=O)Cn1cnnn1)CC2
2.9

Please give the measured ΔTm for this molecule: Cc1n[nH]c2nnc(N)c-2c1C
0.9

Please give the measured ΔTm for this molecule: CCCc1nnc(NC(=O)c2c(C)noc2C)s1
0.9

More entries:
Please give the measured ΔTm for this molecule: COc1ccc(CNC(=O)CSc2nnc(N)s2)cc1
0.9

Please give the measured ΔTm for this molecule: CCc1nnc2scc(-c3ccccc3)n12
3.3

###

molecular target: Bromodomain-containing protein 4 (Homo sapiens); experiment: Inhibition of BRD4 (unknown origin) expressed in Escherichia coli BL21 (DE3) using [Lys(Ac)5/8/12/16]-histone H4 (1 to 21residues)-GGK as substrate incubated for 30 mins by TR-FRET assay
measurement-type: IC50 (µM)
Express your answer in µM, writing the number without its unit.

Look over these answered cases.
Please give the measured IC50 for this compound: Cc1noc(N)c1-c1ccccc1
91

Please give the measured IC50 for this compound: Oc1ccccc1-n1c(O)nnc1S
644

Then this compound:
Please give the measured IC50 for this compound: Cc1cc(Cl)ccc1O[C@H](C)c1nnc(N)s1
79

###

biological target: Bromodomain-containing protein 4 (Homo sapiens); assay: Binding affinity to BRD4 (unknown origin) expressed in Escherichia coli BL21 (DE3) assessed as thermal stabilization at 10 uM by SYPRO orange dye based DSF assay
Let's look at some compounds and their measured ΔTm.
Write the numeric value and follow it with the unit.

# query: ΔTm | item COc1cccc(Cc2nnc(N)s2)c1 | system: Bromodomain-containing protein 4 (Homo sapiens)
1.6 °C

# query: ΔTm | item Cc1cc(Cl)ccc1O[C@H](C)c1nnc(N)s1 | system: Bromodomain-containing protein 4 (Homo sapiens)
0.8 °C

# query: ΔTm | item Oc1ccc(Cl)cc1Nc1ncnc2nc[nH]c12 | system: Bromodomain-containing protein 4 (Homo sapiens)
2.4 °C

More entries:
# query: ΔTm | item Cc1noc(N)c1-c1ccccc1 | system: Bromodomain-containing protein 4 (Homo sapiens)
4.55 °C

# query: ΔTm | item Nc1noc2c1c(=O)[nH]c1ccccc12 | system: Bromodomain-containing protein 4 (Homo sapiens)
3.1 °C
